Test system: Plasmodium falciparum
Assay: In vitro antimalarial activity against Plasmodium falciparum
Format: functional, organism-based
QUANTITY_MEASURED: IC50 (ng/mL)

compound="C[C@@H]1CCC2[C@@H](C)CO[C@@H]3O[C@]4(C)CCC1C23OO4 (some centres undefined)" test_target="Plasmodium falciparum" value=0.15
compound="C[C@@H]1CCC2[C@@H](C)CCO[C@@H]3O[C@]4(C)CCC1C23OO4 (some centres undefined)" test_target="Plasmodium falciparum" value=19
compound="C[C@@H]1CCC2[C@@H](C)C(=O)O[C@@H]3O[C@]4(C)CCC1C23OO4 (some centres undefined)" test_target="Plasmodium falciparum" value=1.21
compound="C[C@@H]1CCC2[C@@H](C)[C@H](CCCO)O[C@@H]3O[C@]4(C)CCC1C23OO4 (some centres undefined)" test_target="Plasmodium falciparum" value=0.23
